Examples of sequences with documented gcPBM binding intensity (ln) follow.
# Test system: PfHDP1 homeodomain (GST-tagged)
# assayDetails: gcPBM binding intensity (ln(normalized median fluorescence intensity)); higher = stronger DNA binding
The full ranking holds about 25,000 sequences; the median of “ln(normalized median fluorescence intensity)” is about 6.7, and the highest 2% start at about 10. The list comes from a sample in which the highest values are over-represented; it also holds close analogues and randomly drawn sequences.

| seq | gcPBM binding intensity (ln) |
| --- | --- |
| TAAATGCACATATACACACACCCAATTTTAAGTTTT [CACACA_site7428] | 11.1 |
| TTTTTTTTTTATTAATGTACAAGATATATAATGTTA [XGTACX_site4809] | 6.16 |
| TTAATTATCCATTTTGCACACATTTTAAAACATGAA [CACACA_site189] | 10.7 |
| CTTAAATTTTTAAATACACACATACACCCATACACA [CACACA_site4461] | 7.25 |
| ACCCAATTTTTTAGTACACACATATAAATATATAAA [CACACA_site4944] | 6.86 |
| ACTATCATTTTTTTAACACACAAAAAAAATAAAATA [CACACA_site3519] | 6.44 |
| TGTTTATCATATTTGTGTCCTCATTTTTTAGTATCA [XGTACX_site947] | 6.62 |
| ATTAAATGCACATATACACACACCCAATTTTAAGTT [CACACA_site3049] | 11.3 |
| AATTATGGGGAAAAGACACACATATATATATATATA [CACACA_site2589] | 9.35 |

Value source: the supplement of paper PMC11417369
